# Tested on: Klebsiella pneumoniae Kp BM1
# Type: cell-based
# MEASUREMENT CONTEXT: Kp BM1
Where a SMILES comes first, the peptide text is derived from it. Bridges are numbered along the chain shown (N, C = ends). [ ]: non-standard residue; d: D form. The star is where a group is joined. Benzothiophen(2-yl)carbonyl = O=C(c1cc2ccccc2s1)*; X6 = Cn1c(C(=O)*)cc2cc(Cl)ccc21; X23 = O=C(c1cc2ccccc2[nH]1)*; X34 = O=C(c1cc(Br)c(Br)o1)*; X65 = O=C(c1cc(Br)ccn1)*; Dab = NCC[C@H](N)C(=O)O; Abu = CC[C@H](N)C(=O)O; Dap = NC[C@H](N)C(=O)O
Documented Minimum inhibitory concentration across a set of molecules

Illustrative cases are given below, each with its answer.
Request: Look up Minimum inhibitory concentration for this molecule: CC[C@@H]1NC(=O)[C@@H](CC(C)C)NC(=O)[C@H](CCN)NC(=O)[C@@H](NC(=O)[C@H](CN)NC(=O)[C@@H](NC(=O)[C@H](CCN)NC(=O)c2cc(Br)c(Br)o2)[C@@H](C)O)CCNC(=O)[C@H]([C@@H](C)O)NC(=O)[C@H](CCN)NC(=O)[C@H](CCN)NC1=O [Compound 79] (X34-[Dab]T[Dap][Dab][Dab][dL][Abu][Dab][Dab]T; lactam 4-C)
Result: 0.25 µg/mL

Request: // same read-out, input: CC[C@@H]1NC(=O)[C@@H](CC(C)C)NC(=O)[C@H](CCN)NC(=O)[C@@H](NC(=O)[C@H](CN)NC(=O)[C@@H](NC(=O)[C@H](CCN)NC(=O)c2cc(Br)ccn2)[C@@H](C)O)CCNC(=O)[C@H]([C@@H](C)O)NC(=O)[C@H](CCN)NC(=O)[C@H](CCN)NC1=O [Compound 102] (X65-[Dab]T[Dap][Dab][Dab][dL][Abu][Dab][Dab]T; lactam 4-C)
Result: <0.125 µg/mL

Request: // same read-out, input: CC[C@@H]1NC(=O)[C@@H](CC(C)C)NC(=O)[C@H](CCN)NC(=O)[C@@H](NC(=O)[C@H](CN)NC(=O)[C@@H](NC(=O)[C@H](CCN)NC(=O)c2cc3ccccc3s2)[C@@H](C)O)CCNC(=O)[C@H]([C@@H](C)O)NC(=O)[C@H](CCN)NC(=O)[C@H](CCN)NC1=O [Compound 50] ({Benzothiophen(2-yl)carbonyl}-[Dab]T[Dap][Dab][Dab][dL][Abu][Dab][Dab]T; lactam 4-C)
Result: 0.5 µg/mL

Request: // same read-out, input: CC[C@@H]1NC(=O)[C@@H](CC(C)C)NC(=O)[C@H](CCN)NC(=O)[C@@H](NC(=O)[C@H](CN)NC(=O)[C@@H](NC(=O)[C@H](CCN)NC(=O)c2cc3cc(Cl)ccc3n2C)[C@@H](C)O)CCNC(=O)[C@H]([C@@H](C)O)NC(=O)[C@H](CCN)NC(=O)[C@H](CCN)NC1=O [Compound 58] (X6-[Dab]T[Dap][Dab][Dab][dL][Abu][Dab][Dab]T; lactam 4-C)
Result: 0.25 µg/mL

Now turn to the next molecule.
Request: Look up Minimum inhibitory concentration for this molecule: CC[C@@H]1NC(=O)[C@@H](CC(C)C)NC(=O)[C@H](CCN)NC(=O)[C@@H](NC(=O)[C@H](CN)NC(=O)[C@@H](NC(=O)[C@H](CCN)NC(=O)c2cc3ccccc3[nH]2)[C@@H](C)O)CCNC(=O)[C@H]([C@@H](C)O)NC(=O)[C@H](CCN)NC(=O)[C@H](CCN)NC1=O [Compound 56] (X23-[Dab]T[Dap][Dab][Dab][dL][Abu][Dab][Dab]T; lactam 4-C)
Result: 0.25 µg/mL
